# measured target: recombinant human PAI-1 (Homo sapiens, UniProt P05121)
# Sequence (P05121 24-402): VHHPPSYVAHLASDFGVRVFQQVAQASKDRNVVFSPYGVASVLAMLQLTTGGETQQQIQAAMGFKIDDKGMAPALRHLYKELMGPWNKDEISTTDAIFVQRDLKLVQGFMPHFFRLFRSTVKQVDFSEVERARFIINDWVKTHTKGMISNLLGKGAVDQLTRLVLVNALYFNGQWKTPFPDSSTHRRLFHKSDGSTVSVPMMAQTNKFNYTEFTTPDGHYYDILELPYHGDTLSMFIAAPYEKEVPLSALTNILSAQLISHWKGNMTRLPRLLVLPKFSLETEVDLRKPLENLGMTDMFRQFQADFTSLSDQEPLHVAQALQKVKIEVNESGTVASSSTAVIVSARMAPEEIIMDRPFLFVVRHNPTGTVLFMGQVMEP
# method notes: Test Example 4: Human PAI-1 Inhibitory Activity (amount of PAI-1 bound to plate-coated one-chain tPA, ELISA)
# Type: biochemical
# Parameters: purchased Molecular Innovations, Inc
# condition set: human PAI-1 bound to tPA; Compound Concentration 1µM; read-out: Inhibition Rate of PAI-1 Activity (%)
# Method: 100 µl of tPA solution, where one-chain recombinant tPA (hereinafter reffered to as tPA; American diagnostica, inc.) had been diluted with Buffer A to acheive a concentration of 10 µg/ml, was added to each well of a 96-well plate (Nunc Maxisorp), and the plate was incubated for one night at 4 °C to be coated with tPA. […]
measure: inhibition at 1 µM (%)

mol smiles: CC(C)(C)c1ccc(Oc2ccc(-c3ccc(OC(F)(F)F)cc3)cc2CCC(=O)O)cc1
recorded result: 14
//
mol smiles: Cc1ccc(N(Cc2ccc(C(C)(C)C)cc2)C(=O)C(=O)O)cc1-c1ccc(OC(F)(F)F)cc1
recorded result: 9
//
mol smiles: CCCCc1ccc(CN(C(=O)C(=O)O)c2ccc(-c3ccc(C(C)(C)C)cc3)cc2)cc1
recorded result: 17
//
mol smiles: CCCOc1ccc(N(Cc2ccc(C(C)(C)C)cc2)C(=O)C(=O)O)cc1-c1ccc(OC(F)(F)F)cc1
recorded result: 20
//
mol smiles: CCN(CC)c1ccc(N(Cc2ccc(C(C)(C)C)cc2)C(=O)C(=O)O)c(-c2ccc(OC(F)(F)F)cc2)c1
recorded result: 6
//
mol smiles: CC(C)(C)c1ccc(Oc2ccc(Oc3ccc(OC(F)(F)F)cc3)cc2CCC(=O)O)cc1
recorded result: 37
//
mol smiles: CCCCCOc1ccc(-c2ccc(OC(F)(F)F)cc2)cc1N(CCCCc1ccccc1)C(=O)C(=O)O
recorded result: 26

###

Readings of inhibition at 0.3 µM for the listed compounds
# measured target: recombinant human PAI-1 (Homo sapiens, UniProt P05121)
# method notes: Test Example 2: Human PAI-1 Inhibitory Activity (pH 7.4 HEPES buffer, 10 minutes incubation with two-chain tPA)
# Format: biochemical
# Parameters: purchased Molecular Innovations, Inc
# condition set: read-out: Inhibition Rate of PAI-1 Activity (%)

compound: CCCCCOc1cc(-c2cccc(C(F)(F)F)c2)ccc1N(CCCCc1ccccc1)C(=O)C(=O)O [Compound 377]
inequality operator: =
inhibition at 0.3 µM, %: 23
//
compound: CC(CCOc1ccc(-c2ccc(OC(F)(F)F)cc2)cc1OCc1ccc(C(C)(C)C)cc1)C(=O)O (stereo not drawn) [Compound 482]
inequality operator: =
inhibition at 0.3 µM, %: 12
//
compound: CCCCOc1ccc(-c2ccc(OCC(=O)O)c(Oc3ccc(C(C)(C)C)cc3)c2)cc1 [Compound 468]
inequality operator: =
inhibition at 0.3 µM, %: 5
//
compound: CN(CC(=O)O)c1ccc(-c2ccc(OC(F)(F)F)cc2)cc1Oc1ccc(C(C)(C)C)cc1 [Compound 534]
inequality operator: =
inhibition at 0.3 µM, %: 21
//
compound: CC(C)(C)c1cccc(Oc2cc(-c3ccc(OC(F)(F)F)cc3)ccc2/C=C/C(=O)O)c1 [Compound 335]
inequality operator: =
inhibition at 0.3 µM, %: 8
//
compound: CC(C)(C)c1ccc(CN(C(=O)C(=O)O)c2ccc(-c3ccc(OC(F)(F)F)cc3)cc2)cc1 [Compound 129]
inequality operator: =
inhibition at 0.3 µM, %: 3
//
compound: CC(C)(C)c1ccc(COc2ccc(Oc3ccc(OC(F)(F)F)cc3)cc2CCC(=O)O)cc1 [Compound 96]
inequality operator: =
inhibition at 0.3 µM, %: 7
//
compound: O=C(O)C(=O)N(CCCCc1ccccc1)c1ccc(N2CCCC2)c(-c2ccc(OC(F)(F)F)cc2)c1 [Compound 673]
inequality operator: =
inhibition at 0.3 µM, %: 15
//
compound: CCCCC(Oc1cc(-c2cccc(C)c2)ccc1Oc1ccc(C(C)(C)C)cc1)C(=O)O (stereo not drawn) [Compound 317]
inequality operator: =
inhibition at 0.3 µM, %: 16
//
compound: CC(C)(C)c1ccc(Oc2ccc(Nc3ccc(OC(F)(F)F)cc3)cc2CCC(=O)O)cc1 [Compound 432]
inequality operator: =
inhibition at 0.3 µM, %: 0
//
compound: CCCCCCCCCOc1ccc(-c2ccc(OC(F)(F)F)cc2)cc1N(CCCCc1ccccc1)C(=O)C(=O)O [Compound 364]
inequality operator: =
inhibition at 0.3 µM, %: 94
//
compound: CCCCCOc1cc(-c2ccc(OC(F)(F)F)cc2)cc(OCc2ccc(C(C)(C)C)cc2)c1OCC(=O)O [Compound 301]
inequality operator: =
inhibition at 0.3 µM, %: 25
//
compound: CCCCCOc1ccc(-c2ccc(C(C)C)cc2)cc1N(CCCCc1ccccc1)C(=O)C(=O)O [Compound 678]
inequality operator: =
inhibition at 0.3 µM, %: 33
//
compound: CCCCCCCCCCN(C(=O)C(=O)O)c1ccc(-c2ccc(OC(F)(F)F)cc2)cc1 [Compound 669]
inequality operator: =
inhibition at 0.3 µM, %: 34
//
compound: O=C(O)CCc1ccc(-c2ccc(OC(F)(F)F)cc2)cc1OC(c1ccccc1)c1ccccc1 [Compound 507]
inequality operator: =
inhibition at 0.3 µM, %: 8
//
compound: CCCCCOc1ccc(-c2cccc(OC(F)(F)F)c2)cc1N(CCCCc1ccccc1)C(=O)C(=O)O [Compound 391]
inequality operator: =
inhibition at 0.3 µM, %: 8
//
compound: CC(C)c1ccccc1Oc1cc(-c2ccc(OC(F)(F)F)cc2)ccc1OCC(=O)O [Compound 513]
inequality operator: =
inhibition at 0.3 µM, %: 7
//
compound: O=C(O)C(=O)N(CCCCc1ccccc1)c1cc(-c2ccc(OC(F)(F)F)cc2)ccc1OC1C2CC3CC(C2)CC1C3 (stereo not drawn) [Compound 634]
inequality operator: =
inhibition at 0.3 µM, %: 37
//
compound: O=C(O)C(=O)N(CCCCc1ccccc1)c1cc(-c2ccc(OC(F)(F)F)cc2)ccc1Oc1ccccc1 [Compound 638]
inequality operator: =
inhibition at 0.3 µM, %: 15
//
compound: CCCCCOc1cc(-c2ccc(OC(F)(F)F)cc2)ccc1N(CCCCc1ccccc1)C(=O)C(=O)O [Compound 367]
inequality operator: =
inhibition at 0.3 µM, %: 26
//
compound: CCCCCCCCCCCCCCCOc1cc(-c2ccc(OC(F)(F)F)cc2)ccc1N(CCCCc1ccccc1)C(=O)C(=O)O [Compound 385]
inequality operator: >
inhibition at 0.3 µM, %: 99
//
compound: CCCCC(C(=O)O)N(Cc1ccc(C(C)(C)C)cc1)c1cccc(-c2ccc(OC(F)(F)F)cc2)c1 (stereo not drawn) [Compound 641]
inequality operator: =
inhibition at 0.3 µM, %: 53
//
compound: CC(C)(C)c1ccc(Oc2cc(-c3cccc(OC(F)(F)F)c3)ccc2CCC(=O)O)cc1 [Compound 504]
inequality operator: =
inhibition at 0.3 µM, %: 26
//
compound: CCC(CC)Oc1ccc(-c2ccc(OC(F)(F)F)cc2)cc1N(Cc1ccc(C(C)(C)C)cc1)C(=O)C(=O)O [Compound 199]
inequality operator: =
inhibition at 0.3 µM, %: 13
//
compound: CCCCCOc1cc(-c2ccc(OC(F)(F)F)cc2)ccc1CN(C(=O)C(=O)O)c1ccc(C(C)(C)C)cc1 [Compound 648]
inequality operator: =
inhibition at 0.3 µM, %: 23
//
compound: CC(C)(C)c1ccc(CN(C(=O)C(=O)O)c2cccc(-c3ccc(OC(F)(F)F)cc3)c2)cc1 [Compound 130]
inequality operator: =
inhibition at 0.3 µM, %: 2
//
compound: CCCCCOc1ccc(-c2ccc(OC(F)(F)F)cc2)cc1N(CCCCc1ccc(Cl)cc1)C(=O)C(=O)O [Compound 384]
inequality operator: =
inhibition at 0.3 µM, %: 11
//
compound: CC(C)(C)Oc1ccc(Oc2cc(-c3ccc(OC(F)(F)F)cc3)ccc2CCC(=O)O)cc1 [Compound 473]
inequality operator: =
inhibition at 0.3 µM, %: 9
//
compound: CCCCCCCOc1ccc(-c2ccc(OC(F)(F)F)cc2)cc1N(CCCCc1ccccc1)C(=O)C(=O)O [Compound 352]
inequality operator: =
inhibition at 0.3 µM, %: 4
//
compound: CCCCC(C(=O)O)N(Cc1ccc(C(C)(C)C)cc1)c1ccc(-c2ccc(OC(F)(F)F)cc2)cc1 (stereo not drawn) [Compound 642]
inequality operator: =
inhibition at 0.3 µM, %: 57
